Numbers sourced from the METLIN SMRT retention time set (Domingo-Almenara et al. 2019).

MEASUREMENT PROTOCOL: gradient 5% acetonitrile 3 min, to 50% in 2 min, to 85% in 15 min, held 3 min, 100 µL/min
EXPERIMENTAL CONDITIONS: column: Zorbax Extend-C18 2.1 x 50 mm; eluents: water / acetonitrile, 0.1% formic acid
Each entry gets NOT MET if its RP-LC retention time stays under 900 s, and MET if its RP-LC retention time is 900 s or above.

Dear colleague, could you confirm whether `Cn1nccc1C(=O)N1CCc2cc(-c3csc(C4CC4)n3)ccc21` has RP-LC retention time at or above 900 s? MET

One more compound: Cc1ccc(NC(=O)C2CCCN(S(=O)(=O)c3c[nH]c(C(=O)N4CCCCCC4)c3)C2)cc1C (stereo not drawn) NOT MET

One more compound: Cc1ccc(C)c(C(=O)N2CCCC(c3nc(CNC(=O)C4CCC4)cs3)C2)c1 (stereo not drawn) NOT MET

One more compound: `O=C(CCSc1ccccc1)N1CCN(c2ccc(-c3ccccn3)nn2)CC1` NOT MET

One more compound: `CCn1cc(CC(=O)Nc2ccc(OC)cc2)c2cccnc21` NOT MET

One more compound: `CCn1c(=O)n(CC)c2cc(N3CCCC3)c(NC(=O)NCc3cccc(F)c3)cc21` NOT MET

One more compound: `Cc1ccc(Nc2c(-c3c(F)cccc3Cl)nc3ccc(Cl)cn23)cc1` MET

One more compound: `Cc1ccc(/C=N/NC(=O)c2ccccc2Oc2ccccc2)o1` NOT MET

One more compound: `Cc1ccccc1S(=O)(=O)N1CCC(CCC(=O)NC2CC2)CC1` NOT MET

One more compound: `N#Cc1cc(NC(=O)Cc2nnc(-c3ccc4ncccc4c3)o2)ccc1F` NOT MET

One more compound: `COC(=O)c1cccc(NC(=O)NCCn2nnc3cc(S(=O)(=O)N(C)C)ccc32)c1` NOT MET

One more compound: `COc1ncccc1C(=O)Nc1onc2c1CSC2` NOT MET

One more compound: `Cc1[nH]c(-c2ccc(F)cc2)cc1C(=O)N1CC=C(c2ccccc2)CC1` MET

One more compound: COCc1cn(CC2CCCN(Cc3cn(C(C)C)c4ccc(OC)cc34)C2)nn1 (stereo not drawn) NOT MET

One more compound: `Cc1nc(OCC(=O)NCc2cccc(Cl)c2)c2c(C)c(C)oc2n1` MET

One more compound: `COc1ccc(NC(=O)C2CCN(S(=O)(=O)c3cn(C(C)C)cn3)CC2)c(OC)c1` MET

One more compound: `CCOC(=O)c1c(N)n(Cc2cccc(OC)c2)c2nc3ccccc3nc12` NOT MET

One more compound: `CCc1nncn1C1CCN(S(=O)(=O)c2ccc(OC)c(Cl)c2)CC1` NOT MET

###

MEASUREMENT PROTOCOL: gradient 5% acetonitrile 3 min, to 50% in 2 min, to 85% in 15 min, held 3 min, 100 µL/min
EXPERIMENTAL CONDITIONS: column: Zorbax Extend-C18 2.1 x 50 mm; eluents: water / acetonitrile, 0.1% formic acid
Label criterion met when RP-LC retention time < 800 s; otherwise criterion not met.

# TODO verify RP-LC retention time < 800 s strictly for this compound: `COc1ccc2cccc(C(=N)c3ccc(C)c4c3CCC4)c2c1` criterion met

One more compound: O=C(NCc1ccc(F)cc1)C1CCCN(S(=O)(=O)c2c[nH]c(C(=O)N3CCCCCC3)c2)C1 (centres undefined) criterion not met

One more compound: `Cc1ccc2ncn(C3CCN(C(=O)Nc4ccccc4)CC3)c(=O)c2c1` criterion met

One more compound: `O=C(Nc1cccc(-c2ccc(N3CCOCC3)nn2)c1)Nc1ccccc1F` criterion met

One more compound: `Cn1cc(CCN2CCN(S(=O)(=O)c3cccc(Cl)c3)CC2)c2cccnc21` criterion met

One more compound: CCOC(=O)c1cc(S(=O)(=O)N2CCN(c3cccc(C)c3)C(C)C2)c(C)n1C (centres undefined) criterion not met

One more compound: `CN(C)C[C@@H]1CN(S(C)(=O)=O)C[C@H]1NC(=O)C1(c2ccccc2)CCCC1` criterion met

One more compound: `COc1ccc(-c2noc(C3(NC(=O)c4ccc(C(F)(F)F)cc4)CCCCC3)n2)cc1` criterion not met

One more compound: `COc1ccc(CC(=O)NCCc2ccc(N(C)C)cc2)cc1` criterion met

One more compound: `COc1ccc(CNC(=O)Nc2cc3c(cc2N2CCOCC2)n(C)c(=O)n3C)cc1` criterion met

One more compound: `CCc1ccc(OCC(=O)Nc2ccc(S(N)(=O)=O)cc2)c(Br)c1` criterion not met

One more compound: `CCc1ccc(S(=O)(=O)N2CC=C(c3cn(C)c4ncccc34)CC2)cc1` criterion not met

One more compound: `CC(C)N1CCN(Cc2ccc(C(=O)NCc3ccccc3C(F)(F)F)cc2)C(=O)C1=O` criterion met

One more compound: `O=C(c1nnc(-c2ccc(S(=O)(=O)N3CCCCC3)cc2)o1)N1CCN(c2ccccc2F)CC1` criterion not met

One more compound: COc1ccc(N2C(=O)CCC(C(=O)NC(C)C)C2c2ccc(OC)c(OC)c2)cc1 (centres undefined) criterion met

One more compound: `Cc1oc(-c2[nH]ncc2C(=O)N2CCCC2)cc1S(=O)(=O)Nc1ccc(Cl)cc1` criterion met

One more compound: CCn1cnc(S(=O)(=O)N2CCCC(C(=O)Nc3ccc(C(C)C)cc3)C2)c1 (centres undefined) criterion not met

One more compound: `COCCc1noc(-c2cnc3nc(C)ccc3c2Nc2ccc(Cl)cc2)n1` criterion met

One more compound: `CN(C)C(=O)c1ccc2c(c1)nnn2CCNC(=O)Nc1ccc(Br)cc1F` criterion met

One more compound: `COc1ccc(Nc2nc(N3CCN(c4ncccn4)CC3)nc3c2C(=O)CCC3)cc1` criterion not met

One more compound: `FC1(F)CN[C@H](c2nc(-c3cccnc3)no2)C1` criterion met

One more compound: Cc1ccccc1CNC(=O)C1CCN(S(C)(=O)=O)c2ccccc2O1 (centres undefined) criterion not met

One more compound: `Cc1ccc(CNC(=O)CSc2nccc(N3CCN(c4cc(C)ccc4C)CC3)n2)cc1` criterion not met

One more compound: `O=C(NCc1ccc(-c2noc(Cc3ccccc3F)n2)s1)C1CC1` criterion not met

One more compound: `CCOC(=O)N1CCC(NC(=O)Cc2csc(Nc3cccc(Cl)c3)n2)CC1` criterion met

One more compound: `COC(=O)c1c(NCc2ccc(C)o2)c2cccc(Cl)c2[nH]c1=O` criterion met

One more compound: `CC1=C(c2ccc(C)cc2)S(=O)(=O)N=C1N1CCCN(C(=O)c2ccccc2F)CC1` criterion not met

One more compound: O=C(NCc1ccc(F)cc1)C1CCCN(c2ncnc3c2oc2ccccc23)C1 (centres undefined) criterion met

One more compound: `COC(=O)Cn1c(-c2ccccc2)cnc1SCC(=O)Nc1nccs1` criterion met

One more compound: `Cc1ccc(S(=O)(=O)NCCc2nnc3ccc(NCCCOC(C)C)nn23)cc1` criterion met

One more compound: `COc1ccc(CNC(=O)CN2CCc3[nH]c4cc5c(cc4c(=O)c3C2)OCCO5)cc1OC` criterion met
